# ASSAY EXPLANATION: Determination of the log P values (LC/MS, HCOOH method)
# Assay type: physicochemical
# RUN CONDITIONS: β isomer of the α + β mixture; HPLC reversed-phase C18, HCOOH method, 55° C.
MEASURED ATTRIBUTE: log P

> print(dat)
                                   compound  result.value
1  Cc1cc(Cl)cc(C)c1C1=C(O)C2(CCC(OCC(F)(F)F)CC2)OC1=O (mixture of isomers)          3.25

====

Collected log P values appear next to each entry.
# ASSAY EXPLANATION: Determination of the log P values (LC/MS, HCOOH method)
# Type: physicochemical
# RUN CONDITIONS: compounds of formula (I-2-b), single isomer as labelled; HPLC reversed-phase C18, HCOOH method
MEASURED ATTRIBUTE: log P

> print(dat)
                                   compound  result.value
1  Cc1cc(Cl)cc(C)c1C1=C(OC(=O)C(C)C)C2(CCC(OCC(F)(F)F)CC2)OC1=O (single isomer, unassigned) [Example I-2-b-16]          4.97
2  Cc1ccc(-c2ccc(Cl)cc2)c(C)c1C1=C(OC(=O)C(C)C)C2(CCC(OCC(F)(F)F)CC2)OC1=O (stereo not drawn)          5.83
3  Cc1cc(C)c(C2=C(OC(=O)C(C)C)[C@]3(CC[C@H](OCC(F)(F)F)CC3)OC2=O)c(C)c1          5.14
4  CCc1cc(-c2ccc(Cl)cc2)cc(C)c1C1=C(OC(=O)C(C)C)C2(CCC(OCC(F)(F)F)CC2)OC1=O (single isomer, unassigned) [I-2-b-18]          6.02
5  Cc1ccc(-c2ccc(Cl)cc2)cc1C1=C(OC(=O)C(C)C)[C@]2(CC[C@H](OCC(F)(F)F)CC2)OC1=O          5.84
6  CCc1cc(C)cc(C)c1C1=C(OC(=O)C(C)C)[C@]2(CC[C@H](OCC(F)(F)F)CC2)OC1=O          5.44
7  Cc1cc(C)c(C2=C(OC(=O)C(C)C)C3(CCC(OCC(F)(F)F)CC3)OC2=O)c(C)c1 (stereo not drawn)          4.88
8  Cc1ccc(-c2ccc(Cl)cc2)c(C)c1C1=C(OC(=O)C(C)C)[C@]2(CC[C@H](OCC(F)(F)F)CC2)OC1=O          6.11
9  Cc1cc(C)c(C2=C(OC(=O)C(C)C)C3(CCC(OCC(F)(F)F)CC3)OC2=O)cc1C (stereo not drawn)          4.87
